Reference for the values: ChEMBL document CHEMBL1129429

target: Serotonin 3 (5-HT3) receptor; assay: Compound was tested for the inhibition of [3H]GR-65630 binding to 5-hydroxytryptamine 3 receptor expressed in NG 108-15 cells; type: cell-based; conditions: read-out: Ki
PARAMETER_MEASURED: log10 of Ki (log10 of the value in µM)
Scale: log10; quantity: Ki; unit before log: µM

Some molecules with recorded log10 of Ki:
[
  {
    "MOLECULE": "COc1cccc(NC(=N)N)c1",
    "log10 of Ki": 0.20
  },
  {
    "MOLECULE": "COc1ccc(Cl)cc1/N=C(\\N)N=C(N)N",
    "log10 of Ki": -0.90
  },
  {
    "MOLECULE": "C[N+]1(C)CCN(c2cccc(Cl)c2)CC1",
    "log10 of Ki": 0.16
  },
  {
    "MOLECULE": "COc1ccc(Cl)cc1N1CCNCC1",
    "log10 of Ki": -1.40
  },
  {
    "MOLECULE": "N=C(N)Cc1cccc(Cl)c1",
    "log10 of Ki": 0.08
  },
  {
    "MOLECULE": "c1ccc2c(N3CCNCC3)cccc2c1",
    "log10 of Ki": -0.76
  },
  {
    "MOLECULE": "N=C(N)NC(=N)Nc1ccccc1Cl",
    "log10 of Ki": -1.21
  },
  {
    "MOLECULE": "NC(N)=Nc1cccc(Cl)c1",
    "log10 of Ki": -1.46
  },
  {
    "MOLECULE": "Cc1cccc(NC(=N)N)c1",
    "log10 of Ki": 0.81
  },
  {
    "MOLECULE": "COc1ccccc1N1CCNCC1",
    "log10 of Ki": 0.40
  }
]

State its log10 of Ki on Serotonin 3 (5-HT3) receptor: N=C(N)NC(=N)Nc1ccc2ccccc2c1
-1.92

Requested read-out log10 of Ki, target or system Serotonin 3 (5-HT3) receptor, entry N=C(N)NCCc1ccc(Cl)cc1
-0.61

Give log10 of Ki (Serotonin 3 (5-HT3) receptor) of the following molecule: NC(N)=Nc1ccccc1Cl
-0.72

---

molecular target: Serotonin 3 (5-HT3) receptor; experiment: Compound was tested for the inhibition of [3H]GR-65630 binding to 5-hydroxytryptamine 3 receptor expressed in NG 108-15 cells; format: cell-based
PARAMETER_MEASURED: Ki (nM)
Kindly provide the numeric value in nM only, without the unit symbol.

What value of Ki has been reported for the following compound? CN1CCN(c2ccc3ccccc3n2)CC1
3

---

molecular target: Serotonin 3 (5-HT3) receptor; test: Compound was tested for the inhibition of [3H]GR-65630 binding to 5-hydroxytryptamine 3 receptor expressed in NG 108-15 cells; assay type: cell-based; conditions: read-out: Ki
pKi: −log10 of the molar value.
Label met when pKi is at or above 6; otherwise label not met.

[
  {
    "MOLECULE": "c1ccc(N2CCNCC2)cc1",
    "LABEL_CLASS": "not met"
  }
]

Does the molecule NCCCCc1cccc(Cl)c1 have recorded pKi that is 6 or more?
not met

Can NCCCc1cccc(Cl)c1 be said to have pKi at or above 6?
not met

Could you please find out whether NCCc1cccc(Cl)c1 has pKi that meets 6 or exceeds it?
not met

Decide: pKi of N=C(N)NC(=N)Nc1ccc(Cl)cc1 [4-CHLOROPHENYLBIGUANIDE] >= 6?
met

In plain terms: is recorded pKi at least 6 for Clc1cccc(N2CCNCC2)c1 ?
met

---

molecular target: Serotonin 3 (5-HT3) receptor; assay: Compound was tested for the inhibition of [3H]GR-65630 binding to 5-hydroxytryptamine 3 receptor expressed in NG 108-15 cells; assay type: cell-based; details: read-out: Ki
Output 1.0 for records whose Ki is lower than 700 nM, 0.0 for records at or above 700 nM.

[
  {
    "SMILES_CODE": "N=C(N)NCCc1cccc(Cl)c1",
    "LABEL_CLASS": 1.0
  },
  {
    "SMILES_CODE": "N=C(N)Nc1cccnc1",
    "LABEL_CLASS": 0.0
  },
  {
    "SMILES_CODE": "NC(=O)Nc1cccc(Cl)c1",
    "LABEL_CLASS": 0.0
  },
  {
    "SMILES_CODE": "N=C(N)NC(=O)Nc1cccc(Cl)c1",
    "LABEL_CLASS": 0.0
  },
  {
    "SMILES_CODE": "NC(N)=Nc1ccc2ccccc2c1",
    "LABEL_CLASS": 1.0
  },
  {
    "SMILES_CODE": "Cc1ccc(NC(N)=NC(=N)N)cc1Cl",
    "LABEL_CLASS": 1.0
  },
  {
    "SMILES_CODE": "N=C(N)NCCc1ccccc1Cl",
    "LABEL_CLASS": 1.0
  },
  {
    "SMILES_CODE": "COc1ccc(N2CCNCC2)cc1",
    "LABEL_CLASS": 0.0
  },
  {
    "SMILES_CODE": "NCCNC(=O)c1cccc(Cl)c1",
    "LABEL_CLASS": 0.0
  }
]

From here, focus on the item given below.
Dear colleague, could you confirm whether Ki of COc1ccc(N2CCNCC2)c(C)c1 falls below 700 nM? Thanks.
1.0

---

molecular target: Serotonin 3 (5-HT3) receptor; assay: Compound was tested for the inhibition of [3H]GR-65630 binding to 5-hydroxytryptamine 3 receptor expressed in NG 108-15 cells; format: cell-based; settings: read-out: Ki
pKi: −log10 of the molar value.
PARAMETER_MEASURED: pKi

Look over these answered cases.
[
  {
    "COMPOUND": "c1ccc(C2CCNCC2)cc1",
    "TARGET_UNDER_TEST": "Serotonin 3 (5-HT3) receptor",
    "pKi": "< 5.00"
  },
  {
    "COMPOUND": "C[N+]1(C)CCN(c2cccc(C(F)(F)F)c2)CC1",
    "TARGET_UNDER_TEST": "Serotonin 3 (5-HT3) receptor",
    "pKi": "< 5.00"
  }
]

Request - read-out pKi | tested on Serotonin 3 (5-HT3) receptor | compound NCCC(=O)Nc1cccc(Cl)c1
< 5.00

API: value(readout=pKi, system=Serotonin 3 (5-HT3) receptor) for record COc1ccc(N2CCNCC2)c(OC)c1
< 5.00

What measured pKi is associated with Clc1cccc(CC2=NCCN2)c1 on Serotonin 3 (5-HT3) receptor?
< 5.00

Hi! What's the reported pKi for N=C(N)Nc1ccccn1 on Serotonin 3 (5-HT3) receptor?
< 5.00

What measured pKi is associated with Clc1ccc(N2CCNCC2)cc1 on Serotonin 3 (5-HT3) receptor?
5.67

Param readout = pKi; param system = Serotonin 3 (5-HT3) receptor; param query = FC(F)(F)c1cccc(N2CCNCC2)c1 ; response: value
5.86

Kindly state the measured pKi obtained for N=C(N)NC(=N)Nc1cccc(Cl)c1 with Serotonin 3 (5-HT3) receptor.
7.77

Hi! What's the reported pKi for NC=Nc1cccc(Cl)c1 on Serotonin 3 (5-HT3) receptor?
< 5.00

GET /values?readout=pKi&system=Serotonin 3 (5-HT3) receptor&item= N=C(N)Nc1ccc(Cl)cc1
6.49

GET /values?readout=pKi&system=Serotonin 3 (5-HT3) receptor&item= N=C(N)NC(=N)Nc1ccccc1 [PHENYL BIGUANIDE]
5.92

Provide value of pKi for this record tested with Serotonin 3 (5-HT3) receptor: NCCCNc1cccc(Cl)c1
< 5.00

Lab note: need pKi with Serotonin 3 (5-HT3) receptor for entry CN(C)CCc1cccc(Cl)c1 , please look it up.
< 5.00

Which pKi is reported with Serotonin 3 (5-HT3) receptor for this entry: N=C(N)/N=C(\N)Nc1cccc([N+](=O)[O-])c1 ?
6.66

Form entry - test system: Serotonin 3 (5-HT3) receptor; read-out: pKi; compound: NC(N)=Nc1cccc(C(F)(F)F)c1
5.24

---

molecular target: Serotonin 3 (5-HT3) receptor; assay: Compound was tested for the inhibition of [3H]GR-65630 binding to 5-hydroxytryptamine 3 receptor expressed in NG 108-15 cells; format: cell-based; conditions: read-out: Ki
PARAMETER_MEASURED: Ki

Example results:
[
  {
    "SMILES_CODE": "N=C(N)NCc1cccc(Cl)c1",
    "TARGET_UNDER_TEST": "Serotonin 3 (5-HT3) receptor",
    "READOUT_VALUE": "1200 nM"
  },
  {
    "SMILES_CODE": "Cc1cccc(N2CCN(C)CC2)n1",
    "TARGET_UNDER_TEST": "Serotonin 3 (5-HT3) receptor",
    "READOUT_VALUE": "560 nM"
  },
  {
    "SMILES_CODE": "Cc1cccc(NC(N)=NC(=N)N)c1",
    "TARGET_UNDER_TEST": "Serotonin 3 (5-HT3) receptor",
    "READOUT_VALUE": "780 nM"
  },
  {
    "SMILES_CODE": "Clc1cccc(N2CCNCC2)n1",
    "TARGET_UNDER_TEST": "Serotonin 3 (5-HT3) receptor",
    "READOUT_VALUE": "15 nM"
  },
  {
    "SMILES_CODE": "c1ccc2cc(N3CCNCC3)ccc2c1",
    "TARGET_UNDER_TEST": "Serotonin 3 (5-HT3) receptor",
    "READOUT_VALUE": "32 nM"
  },
  {
    "SMILES_CODE": "CN(C)C(=N)N=C(N)Nc1cccc(Cl)c1",
    "TARGET_UNDER_TEST": "Serotonin 3 (5-HT3) receptor",
    "READOUT_VALUE": "> 10000 nM"
  }
]

What value of measured Ki is listed for CNCCc1cccc(Cl)c1 ?
> 10000 nM

Would you kindly share the measured Ki for N=C(N)Nc1ccccc1 ?
2340 nM
